B1: GNB5 (parent)
chain: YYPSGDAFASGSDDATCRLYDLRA

Variants of: B1
Assay: protein stability index of a GFP-peptide fusion (GPS, HEK-293T) (PSI 1-6); higher = more stable;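 further: lentivirally expressed fusions sorted by FACS into six bins by GFP to DsRed ratio, PSI derived from sequencing read proportions per bin multiplied by bin number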
Settings: c terminus: a fixed tail appended
measureName: protein stability index

{"columns": ["changes", "measuredResult"],
 "data": [
  ["Y2P", 3.16],
  ["Y20L", 2.6],
  ["S12A", 2.76],
  ["G5I", 2.8],
  ["T16V", 1.95],
  ["D13C", 1.56],
  ["G11Y", 1.98],
  ["A15C", 1.98],
  ["T16D", 2.91],
  ["C17Q", 2.9]
]}
